# target-under-test: rat brain MAO-B (Rattus norvegicus (Rat))
# Sequence (P19643 whole entry): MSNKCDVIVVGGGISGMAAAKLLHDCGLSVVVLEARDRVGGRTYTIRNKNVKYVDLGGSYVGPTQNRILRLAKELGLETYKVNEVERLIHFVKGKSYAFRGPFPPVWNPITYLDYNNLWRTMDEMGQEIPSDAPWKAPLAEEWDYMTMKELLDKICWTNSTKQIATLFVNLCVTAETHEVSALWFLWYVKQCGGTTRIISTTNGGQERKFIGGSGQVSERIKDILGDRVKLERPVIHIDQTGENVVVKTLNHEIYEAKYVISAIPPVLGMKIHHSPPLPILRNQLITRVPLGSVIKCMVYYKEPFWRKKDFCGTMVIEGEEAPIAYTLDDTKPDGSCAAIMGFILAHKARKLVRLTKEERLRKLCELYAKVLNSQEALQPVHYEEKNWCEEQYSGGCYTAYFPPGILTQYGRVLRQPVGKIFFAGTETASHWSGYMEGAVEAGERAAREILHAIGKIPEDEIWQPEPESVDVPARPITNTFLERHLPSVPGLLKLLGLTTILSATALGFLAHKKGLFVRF
# protocol-details: In vitro inhibition of rat brain MAO-B (14C-PEA substrate)
# Format: biochemical
# reported-conditions: estimated from FIG. 2, rat brain MAO-B; read-out: MAO-B IC50
measurement-kind: pIC50
A value of pIC50 is the negative decimal logarithm of a concentration given in moles per litre.

For the compound `C#CCN(C)CCCc1ccc(O)c2ncccc12` , what pIC50 is on record? 7.00

* * *

# protocol-details: Stability in aqueous solution (PBS or saline) followed by HPLC
# Assay type: physicochemical
# reported-conditions: PBS, 25° C., 20 hours, 0.5 mM
measurement-kind: Amount of compound remaining (%)

| molecule | Amount of compound remaining (%) |
| --- | --- |
| C#CCN(C)CCc1ccc(OC)c2ncccc12 [[O-Methyl-Compound 3]] | 100 |
| C#CCN(C)Cc1ccc(O)c2ncccc12 [Compound M30, reference compound] | 28 |
| C#CCN(C)CCCc1ccc(O)c2ncccc12 | 100 |
| C#CCN(C)CCc1ccc(O)c2ncccc12 | 100 |

* * *

# protocol-details: Follow-up stability experiment at 37° C. in PBS
# Assay type: physicochemical
# reported-conditions: 24 hours
Recorded Amount of compound remaining (%) values for a group of molecules are listed next.
Return type: number; implicit unit %.

Recorded Amount of compound remaining (%) of C#CCN(C)Cc1ccc(O)c2ncccc12 [Compound M30, reference compound] , please. 4.26

Reported Amount of compound remaining (%), molecule C#CCN(C)CCc1cc(C2CC2)c(O)c2ncccc12 [Compound 7] : ____ 94.1

* * *

# protocol-details: Stability in aqueous solution (PBS or saline) followed by HPLC
# Format: physicochemical
# reported-conditions: PBS, 25° C., 48 hours, 0.5 mM
measurement-kind: Amount of compound remaining (%)

| compound | endpoint-unit | Amount of compound remaining (%) |
| --- | --- | --- |
| C#CCN(C)CCc1ccc(OC)c2ncccc12 [[O-Methyl-Compound 3]] | % | 100 |
| C#CCN(C)Cc1ccc(O)c2ncccc12 [Compound M30, reference compound] | % | 15 |
| C#CCN(C)CCc1ccc(O)c2ncccc12 | % | 100 |
| C#CCN(C)CCCc1ccc(O)c2ncccc12 | % | 100 |

* * *

# protocol-details: Stability in aqueous solution (PBS or saline) followed by HPLC
# Type: physicochemical
# reported-conditions: PBS, 25° C., 2 hours, 0.5 mM
measurement-kind: Amount of compound remaining (%)

| compound | measurement-kind | recorded-value |
| --- | --- | --- |
| C#CCN(C)CCCc1ccc(O)c2ncccc12 | Amount of compound remaining (%) | 100 |
| C#CCN(C)CCc1ccc(O)c2ncccc12 | Amount of compound remaining (%) | 100 |
| C#CCN(C)Cc1ccc(O)c2ncccc12 [Compound M30, reference compound] | Amount of compound remaining (%) | 57 |
| C#CCN(C)CCc1ccc(OC)c2ncccc12 [[O-Methyl-Compound 3]] | Amount of compound remaining (%) | 100 |

* * *

# protocol-details: in vitro
# reported-conditions: human, LC50 (μM) SHSY-5Y
measurement-kind: CC50 at 4 h

Any idea what its CC50 at 4 h is? The compound is CC/C(=C(\c1ccccc1)c1ccc(OCCN(C)C)cc1)c1ccccc1 [tamoxifen, reference compound] ~50 µM

* * *

# protocol-details: Follow-up stability experiment at 37° C. in PBS
# Assay type: physicochemical
# reported-conditions: 8 hours
measurement-kind: Amount of compound remaining (%)

| compound | endpoint-unit | Amount of compound remaining (%) |
| --- | --- | --- |
| C#CCN(C)Cc1ccc(O)c2ncccc12 [Compound M30, reference compound] | % | 14.4 |
| C#CCN(C)CCc1cc(C2CC2)c(O)c2ncccc12 | % | 97.7 |
| C#CCN(C)CCc1cc(F)c(O)c2ncccc12 | % | 96.7 |
| C#CCN(C)CCc1ccc(O)c2ncccc12 | % | 95.7 |

* * *

# target-under-test: rat brain MAO-A (Rattus norvegicus (Rat), UniProt P21396)
# Sequence (P21396 whole entry): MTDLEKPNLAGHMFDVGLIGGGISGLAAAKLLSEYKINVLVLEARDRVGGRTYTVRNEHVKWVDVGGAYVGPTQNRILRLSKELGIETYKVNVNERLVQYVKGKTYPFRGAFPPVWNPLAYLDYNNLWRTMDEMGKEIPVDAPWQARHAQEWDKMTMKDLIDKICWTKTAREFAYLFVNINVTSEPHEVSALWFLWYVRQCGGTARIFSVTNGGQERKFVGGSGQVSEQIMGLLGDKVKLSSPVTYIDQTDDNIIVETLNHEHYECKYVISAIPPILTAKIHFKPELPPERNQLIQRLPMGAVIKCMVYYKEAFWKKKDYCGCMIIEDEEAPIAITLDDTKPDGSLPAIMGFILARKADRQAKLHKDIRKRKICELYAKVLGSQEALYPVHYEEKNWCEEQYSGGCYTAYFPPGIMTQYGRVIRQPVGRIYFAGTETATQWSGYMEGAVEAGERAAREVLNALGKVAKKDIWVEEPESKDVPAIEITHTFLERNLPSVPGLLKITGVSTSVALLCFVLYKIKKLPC
# protocol-details: In vitro inhibition of rat brain MAO-A (14C-5-HT substrate)
# Assay type: biochemical
# reported-conditions: estimated from the data in FIG. 1, rat brain MAO-A; read-out: MAO-A IC50
measurement-kind: IC50 (nM)
Kindly provide the numeric value in nM only, without the unit symbol.

Report IC50 for `C#CCN(C)CCCc1ccc(O)c2ncccc12` please. 200

* * *

# target-under-test: rat brain MAO-A (Rattus norvegicus (Rat), UniProt P21396)
# protocol-details: In vitro inhibition of rat brain MAO-A (14C-5-HT substrate)
# Assay type: biochemical
pIC50: −log10 of the molar value.
measurement-kind: pIC50

What value of pIC50 has been reported for the following molecule? `C#CCN(C)CCc1ccc(O)c2ncccc12` 7.05 to 7.15

* * *

# protocol-details: Stability in aqueous solution (PBS or saline) followed by HPLC
# Format: physicochemical
# reported-conditions: PBS, 25° C., 0.5 hours, 0.5 mM
measurement-kind: Amount of compound remaining (%)

| molecule | endpoint-unit | Amount of compound remaining (%) |
| --- | --- | --- |
| C#CCN(C)CCc1ccc(OC)c2ncccc12 [[O-Methyl-Compound 3]] | % | 100 |
| C#CCN(C)CCc1ccc(O)c2ncccc12 [Compound 3] | % | 100 |
| C#CCN(C)CCCc1ccc(O)c2ncccc12 [Compound 4] | % | 100 |
| C#CCN(C)Cc1ccc(O)c2ncccc12 [Compound M30, reference compound] | % | 76 |

* * *

# System: SHSY-5Y cells
# protocol-details: in vitro
# reported-conditions: read-out: LC50 (μM) SHSY-5Y; four hours incubation
measurement-kind: CC50 (µM)
Write the value in µM as a bare number.

Can you look up CC50 on SHSY-5Y cells for `C#CCN(C)CCc1ccc(O)c2ncccc12` ? 885
